All values here come from ChEMBL document CHEMBL1149301.

pIC50: −log10 of the molar value.
Endpoint: pIC50. System: UniProtKB P00374. Items follow.
Sequence (P00374 whole entry): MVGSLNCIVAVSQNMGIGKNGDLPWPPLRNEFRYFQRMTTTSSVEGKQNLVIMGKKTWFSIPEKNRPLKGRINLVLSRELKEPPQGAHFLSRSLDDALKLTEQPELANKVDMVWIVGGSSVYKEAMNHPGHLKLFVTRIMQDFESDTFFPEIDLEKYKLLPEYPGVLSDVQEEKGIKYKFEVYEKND
measurement_kind: pIC50

Cc1[nH]c2nc(N)[nH]c(=O)c2c1Sc1ccc(C(=O)N[C@@H](CCC(=O)O)C(=O)O)c(Cl)c1
4.96
Cc1[nH]c2nc(N)[nH]c(=O)c2c1Sc1ccc(C(=O)N[C@@H](CCC(=O)O)C(=O)O)c(F)c1
5.68
Cc1[nH]c2nc(N)[nH]c(=O)c2c1Sc1ccc(C(=O)N[C@@H](CCC(=O)O)C(=O)O)cc1
5.68

----------
- system_name: Thymidylate synthase (Escherichia coli)
- Sequence (C3SWJ7 whole entry): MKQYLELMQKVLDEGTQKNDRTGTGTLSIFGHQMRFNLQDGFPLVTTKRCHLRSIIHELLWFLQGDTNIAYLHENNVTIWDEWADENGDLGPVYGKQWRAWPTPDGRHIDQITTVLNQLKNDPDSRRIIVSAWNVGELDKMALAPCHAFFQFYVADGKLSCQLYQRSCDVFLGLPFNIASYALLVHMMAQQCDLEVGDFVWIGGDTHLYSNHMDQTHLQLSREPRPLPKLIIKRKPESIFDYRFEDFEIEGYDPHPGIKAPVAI
measurement_kind: IC50 (nM)

Cc1[nH]c2nc(N)[nH]c(=O)c2c1Sc1ccc(C(=O)N[C@@H](CCC(=O)O)C(=O)O)c(Cl)c1
5100
Cc1[nH]c2nc(N)[nH]c(=O)c2c1Sc1ccc(C(=O)N[C@@H](CCC(=O)O)C(=O)O)c(F)c1
720

----------
- protocol_text: Cytotoxicity against human CCRF-CEM leukemia cells
- Assay type: cell-based
measurement_kind: GI50

Cc1[nH]c2nc(N)[nH]c(=O)c2c1Sc1ccc(C(=O)N[C@@H](CCC(=O)O)C(=O)O)c(F)c1
712 nM

----------
- System: CCRF-CEM
- protocol_text: Growth inhibition of human CCRF-CEM cells
- Type: functional, cell-based
measurement_kind: EC50 (nM)

Cc1[nH]c2nc(N)[nH]c(=O)c2c1Sc1ccc(C(=O)N[C@@H](CCC(=O)O)C(=O)O)c(Cl)c1
690
Cc1[nH]c2nc(N)[nH]c(=O)c2c1Sc1ccc(C(=O)N[C@@H](CCC(=O)O)C(=O)O)c(F)c1
215

----------
- protocol_text: Cytotoxicity against NCI/ADR-RES cells
- Assay type: cell-based
- settings: human
measurement_kind: GI50

Cc1[nH]c2nc(N)[nH]c(=O)c2c1Sc1ccc(C(=O)N[C@@H](CCC(=O)O)C(=O)O)c(Cl)c1
8.54 µM
Cc1[nH]c2nc(N)[nH]c(=O)c2c1Sc1ccc(C(=O)N[C@@H](CCC(=O)O)C(=O)O)c(F)c1
0.383 µM

----------
- System: CCRF-CEM
- protocol_text: Growth inhibition of MTX-resistant human CCRF-CEM R30dm cells
- Format: functional, cell-based
pEC50: −log10 of the molar value.
pEC50: recorded values
measurement_kind: pEC50

Cc1[nH]c2nc(N)[nH]c(=O)c2c1Sc1ccc(C(=O)N[C@@H](CCC(=O)O)C(=O)O)c(Cl)c1
5.92
Cc1[nH]c2nc(N)[nH]c(=O)c2c1Sc1ccc(C(=O)N[C@@H](CCC(=O)O)C(=O)O)c(F)c1
6.52

----------
- protocol_text: Cytotoxicity against BT549 cells
- Assay type: cell-based, BT-549
- settings: human
measurement_kind: GI50 (µM)

Cc1[nH]c2nc(N)[nH]c(=O)c2c1Sc1ccc(C(=O)N[C@@H](CCC(=O)O)C(=O)O)c(F)c1
2.21

----------
- protocol_text: Cytotoxicity against human EKVX cells
- Type: cell-based
measurement_kind: GI50 (µM)

Cc1[nH]c2nc(N)[nH]c(=O)c2c1Sc1ccc(C(=O)N[C@@H](CCC(=O)O)C(=O)O)c(Cl)c1
0.758
Cc1[nH]c2nc(N)[nH]c(=O)c2c1Sc1ccc(C(=O)N[C@@H](CCC(=O)O)C(=O)O)c(F)c1
6.83

----------
- protocol_text: Cytotoxicity against HCC2998 cells
- Assay type: cell-based, HCC 2998
- settings: human
measurement_kind: GI50

Cc1[nH]c2nc(N)[nH]c(=O)c2c1Sc1ccc(C(=O)N[C@@H](CCC(=O)O)C(=O)O)c(F)c1
< 10 nM
Cc1[nH]c2nc(N)[nH]c(=O)c2c1Sc1ccc(C(=O)N[C@@H](CCC(=O)O)C(=O)O)c(Cl)c1
1480 nM
